targetSystem: GlyR α1^I111A (Homo sapiens, UniProt P23415, I139A)
Sequence (P23415 29-457 I139A): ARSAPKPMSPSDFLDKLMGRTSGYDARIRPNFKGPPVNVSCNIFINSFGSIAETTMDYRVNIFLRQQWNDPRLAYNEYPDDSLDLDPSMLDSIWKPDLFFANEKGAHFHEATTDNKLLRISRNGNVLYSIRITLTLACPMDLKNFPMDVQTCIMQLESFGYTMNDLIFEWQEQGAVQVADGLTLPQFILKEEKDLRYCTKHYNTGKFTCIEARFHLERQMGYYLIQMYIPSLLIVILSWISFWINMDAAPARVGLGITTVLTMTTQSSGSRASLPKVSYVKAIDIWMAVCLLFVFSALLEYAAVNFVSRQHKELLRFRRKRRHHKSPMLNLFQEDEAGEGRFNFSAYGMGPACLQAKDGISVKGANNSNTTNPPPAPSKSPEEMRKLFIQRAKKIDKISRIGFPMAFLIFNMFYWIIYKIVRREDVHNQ
experimentalProtocol: Whole-cell recording of substituted GlyR in HEK cells
particulars: read-out: Zn^2+ Activation EC50, direct activation without glycine
metric: pEC50
Schema: pEC50 number; meaning minus log10 of the concentration expressed in molar units.

Look up pEC50 for this compound: [Zn+2] 3.33
